Assay: MicroPET imaging, ROI quantification
Type: in vivo, mice
Conditions: male, athymic nu/nu, mouse, tumor (UM-SCC-22B xenograft), iv, total radioactivity; UM-SCC-22B tumor, 120 min post injection, 3.7 MBq i.v., mean ± SD, n = 4
Residues, ends and D or L forms follow the SMILES beside them. *: point of attachment. Propanoyl(2-F) = CC(F)C(=O)*

- Molecule: "CC(C)C[C@H](NC(=O)[C@@H](N)Cc1ccc(O)cc1)C(=O)N[C@@H](Cc1ccccc1)C(=O)N[C@@H](CO)C(=O)N[C@H](C(=O)N[C@@H](Cc1c[nH]cn1)C(=O)N[C@@H](Cc1c[nH]c2ccccc12)C(=O)N1CCC[C@H]1C(=O)N1CCC[C@H]1C(=O)N[C@@H](CC(C)C)C(=O)N[C@@H](CCCCNC(=O)C(C)F)C(=O)N[C@@H](C)C(=O)O)C(C)C (stereo partly shown) [[^18F]FP-Met-pep1] (H-YLFSVHWPPLK(Propanoyl(2-F))A-OH)"
  Unit text: "%ID/g"
  tissue uptake at 2 h: 3.11
